Biological target: RORγt ligand-binding domain (RORγt-LBD) (Homo sapiens)
Construct: 20 nM recombinantly expressed RORγ-LBD fused to GST
Assay: Time-resolved FRET (TR-FRET) RORγt coactivator assay
Settings: GST-RORγ-LBD, biotinylated RIP140 peptide, coactivator displacement
pIC50: −log10 of the molar value.
Reported pIC50 values are given for each entry in this list.

// solved cases for pIC50 follow
compound="CC(C)(C)OC(=O)CCc1c[nH]c2ccc(CC(=O)NC(c3ccccc3)c3ccccc3N3CC=CCC3)cc12 (stereo not drawn)" valuereported="5.00 to 6.00"
compound="Cc1ccc(C(NC(=O)Cc2ccc3[nH]cc(CCC(=O)O)c3c2)c2ccccc2)c(C)c1 (stereo not drawn)" valuereported="> 6.00"

Kindly consider the entry below.
Query :: Consider the compound shown here: Cc1ccc(C(NC(=O)Cc2ccc3[nH]cc(CCC(=O)O)c3c2)c2ccccc2)c2ccccc12 (stereo not drawn) What is its recorded pIC50?
Result :: > 6.00

* * *

Molecular target: CYP1A2 (Homo sapiens)
Sequence (P05177 whole entry): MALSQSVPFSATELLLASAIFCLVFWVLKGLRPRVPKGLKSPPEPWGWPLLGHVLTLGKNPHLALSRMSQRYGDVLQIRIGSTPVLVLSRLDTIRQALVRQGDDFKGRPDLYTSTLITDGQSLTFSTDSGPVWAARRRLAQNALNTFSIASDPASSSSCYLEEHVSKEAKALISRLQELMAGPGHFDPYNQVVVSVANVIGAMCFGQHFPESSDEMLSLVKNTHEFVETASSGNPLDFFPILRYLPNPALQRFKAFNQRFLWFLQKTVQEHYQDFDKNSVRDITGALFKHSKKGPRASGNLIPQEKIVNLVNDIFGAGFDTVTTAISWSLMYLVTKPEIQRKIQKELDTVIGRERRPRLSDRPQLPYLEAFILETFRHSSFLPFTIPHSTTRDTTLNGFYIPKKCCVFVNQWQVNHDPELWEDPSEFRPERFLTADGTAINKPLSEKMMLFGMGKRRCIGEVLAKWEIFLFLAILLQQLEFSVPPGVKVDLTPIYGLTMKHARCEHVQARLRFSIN
Assay: CYP inhibition CYP1A2 (CEREP)
Assay type: in vitro ADME
Conditions: human, recombinant CYP1A2, probe 3-cyano-7-ethoxycoumarin, single concentration (typically 10 μM), read-out: CYP 1A2 (% inhibition of Control)
Description: All the assays were conducted at CEREP (CEREP, France and USA). Metabolic compound stability was tested in human (CEREP, Ref 607) and mouse (CEREP, Ref: 806) microsomes. […] Briefly, CEREP's CYP inhibition assay uses traditional probe substrates, which are specific to individual CYP isoforms. […] Compounds were tested at single concentrations (typically 10 μM) and data were expressed as percent of control inhibition.
observable: inhibition at 10 µM (%)

// solved cases for inhibition at 10 µM follow
compound="Cc1ccc(C(NC(=O)Cc2ccc3[nH]cc(CCC(=O)O)c3c2)c2ccccc2)c(N2CCCC2)c1 (stereo not shown)" observable="inhibition at 10 µM" valuereported=4.4
compound="O=C(O)CCc1c[nH]c2ccc(CC(=O)NC(c3cccc(F)c3)c3ccccc3N3CCCCC3)cc12 (stereo not shown)" observable="inhibition at 10 µM" valuereported=2.9

1 = Cc1ccc(C(NC(=O)Cc2ccc3[nH]cc(CCC(=O)O)c3c2)c2ccccc2)c(N2CCCCC2)c1 (stereo not shown)
2 = COc1ccc(C(NC(=O)Cc2ccc3[nH]cc(CCC(=O)O)c3c2)c2ccccc2)c(N2CCCCC2)c1 (stereo not shown)
Query :: Kindly identify which of 1 and 2 has the larger recorded inhibition at 10 µM value. Answer with the label corresponding to your selection.
Result :: 1
(1: -0.9%, 2: -12.4%)

* * *

Reported pIC50 values are given for each entry in this list.
Target: RORγt ligand-binding domain (RORγt-LBD) (Homo sapiens)
Construct: 20 nM recombinantly expressed RORγ-LBD fused to GST
Assay: Time-resolved FRET (TR-FRET) RORγt coactivator assay
Settings: GST-RORγ-LBD, biotinylated RIP140 peptide, coactivator displacement
Excerpt: Time-resolved FRET (TR-FRET) RORγt coactivator assay was used to identify RORγ modulator compounds with ligand-dependent coactivator displacement. […] For reduction of background from compound fluorescence, TR-FRET method makes use of generic fluorophore labels and time resolved detection. […]
pIC50: −log10 of the molar value.

Query :: Consider the compound shown here: CC(C)(C)OC(=O)CCc1c[nH]c2ccc(CC(=O)NC(c3ccccc3)c3ccccc3N3CCCC3)cc12 (centres unmarked) [Cpd. 78] What is its recorded pIC50?
Result :: 5.00 to 6.00

Query :: What about this compound? O=C(O)CCc1n[nH]c2ccc(CC(=O)NC(c3ccccc3)c3ccccc3N3CCCCC3)cc12 (centres unmarked) [compound 237]
Result :: > 6.00

Query :: What about this compound? CC(C)CC(NC(=O)Cc1ccc2[nH]cc(CCC(=O)O)c2c1)c1cccc2ccccc12 (centres unmarked) [compound 105]
Result :: > 6.00

Query :: What about this compound? CC(C)CC(NC(=O)Cc1ccc2[nH]cc(CCC(=O)O)c2c1)c1ccccc1N1CCCCCC1 (centres unmarked) [compound 198]
Result :: > 6.00

Query :: What about this compound? Cc1ccc(C(NC(=O)Cc2ccc3[nH]cc(CCC(=O)O)c3c2)c2ccccc2N2CCCCC2)o1 (centres unmarked) [compound 148]
Result :: > 6.00

Query :: What about this compound? Cc1ccc(C(NC(=O)Cc2ccc3[nH]cc(CCC(=O)OC(C)(C)C)c3c2)c2ccc(C)s2)c(N2CCCCC2)c1 (centres unmarked) [Cpd. 137]
Result :: 5.00 to 6.00

Query :: What about this compound? Cc1ccc(C(NC(=O)Cc2ccc3[nH]cc(CC(=O)O)c3c2)c2ccccc2)c(N2CCCCC2)c1 (centres unmarked) [compound 87]
Result :: > 6.00

Query :: What about this compound? CNC(=O)CCc1c[nH]c2ccc(CC(=O)NC(c3ccccc3)c3ccccc3N3CCCCC3)cc12 (centres unmarked) [compound 115]
Result :: > 6.00

Query :: What about this compound? Cc1ccc(C(NC(=O)Cc2ccc3[nH]cc(CCC(=O)OC(C)(C)C)c3c2)c2ccccc2)c(N2CCCCCC2)c1 (centres unmarked) [Cpd. 250]
Result :: > 6.00

Query :: What about this compound? Cc1ccc(C(NC(=O)Cc2ccc3[nH]cc(CCC(=O)O)c3c2)c2ccccc2)c(Br)c1 (centres unmarked) [Cpd. 9]
Result :: > 6.00

Query :: What about this compound? O=C(O)CCc1c[nH]c2ccc(CC(=O)NC(c3ccccc3)c3ccc(C(F)(F)F)cc3N3CCCC3)cc12 (centres unmarked) [Cpd. 48]
Result :: > 6.00

Query :: What about this compound? CC(C)(C)OC(=O)CCc1c[nH]c2ncc(NC(=O)NC(c3ccccc3)c3ccccc3N3CCCCC3)cc12 (centres unmarked) [Cpd. 94]
Result :: 5.00 to 6.00

Query :: What about this compound? COC(=O)Cc1c[nH]c2ccc(CC(=O)NC(c3ccccc3)c3ccc(C)cc3N3CCOCC3)cc12 (centres unmarked) [Cpd. 96]
Result :: > 6.00

Query :: What about this compound? COc1ccc(C(NC(=O)Cc2ccc3[nH]cc(CCC(=O)O)c3c2)c2ccccc2)c(C)c1 (centres unmarked) [compound 83]
Result :: > 6.00

* * *

Biological target: human RORγt (Homo sapiens, UniProt P51449)
Sequence (P51449 1-497 isoform P51449-2): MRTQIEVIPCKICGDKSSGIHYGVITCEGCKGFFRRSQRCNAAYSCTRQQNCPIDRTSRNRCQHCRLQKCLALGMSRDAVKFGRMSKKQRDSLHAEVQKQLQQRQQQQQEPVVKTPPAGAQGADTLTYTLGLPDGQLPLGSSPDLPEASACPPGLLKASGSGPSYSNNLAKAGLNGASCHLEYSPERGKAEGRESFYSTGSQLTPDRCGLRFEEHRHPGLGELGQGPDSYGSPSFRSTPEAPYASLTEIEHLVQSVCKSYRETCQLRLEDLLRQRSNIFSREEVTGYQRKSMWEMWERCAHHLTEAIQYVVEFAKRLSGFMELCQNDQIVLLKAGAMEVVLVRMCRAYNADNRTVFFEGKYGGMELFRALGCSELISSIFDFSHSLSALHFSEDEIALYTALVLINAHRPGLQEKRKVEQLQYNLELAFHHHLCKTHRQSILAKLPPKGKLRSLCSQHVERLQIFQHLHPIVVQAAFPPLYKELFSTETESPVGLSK
Assay: IL-17 secretion from EL4 murine lymphoma overexpressing human RORγt
Type: cell-based
Design: expressed in transfected cells; host or cells: EL-4 murine lymphoma
Conditions: IL-17 secretion inhibition, PMA and ionomycin stimulation, 24 h
Reported IC50 values are given for each entry in this list.

// solved cases for IC50 follow
molecule="CC(C)(C)OC(=O)CCc1c[nH]c2ccc(CC(=O)NC(c3ccccc3)c3ccc(O)cc3N3CCCCC3)cc12 (stereo not shown) [compound 264]" measuredon="human RORγt (Homo sapiens, UniProt P51449)" observable=IC50 valuereported="1000 to 10000 nM"
molecule="O=C(O)CCc1c[nH]c2ccc(CC(=O)NC(c3ccccc3)c3ccc(Cl)cc3N3CCCC3)cc12 (stereo not shown) [compound 91]" measuredon="human RORγt (Homo sapiens, UniProt P51449)" observable=IC50 valuereported="1000 to 10000 nM"
molecule="Cc1ccc(C(NC(=O)Cc2ccc3[nH]cc(CCC(=O)O)c3c2)c2ccccc2)c(N2CCCCC2)c1 (stereo not shown) [Cpd. 77]" measuredon="human RORγt (Homo sapiens, UniProt P51449)" observable=IC50 valuereported="< 1000 nM"

Kindly consider the entry below.
Query :: Consider the molecule shown here: Cc1ccc(C(NC(=O)Cc2ccc3[nH]cc(CC(=O)O)c3c2)c2ccccc2)c(N2CCCCC2)c1 (stereo not shown) [compound 87] What is its recorded IC50?
Result :: 1000 to 10000 nM

* * *

Target: RORγt ligand-binding domain (RORγt-LBD) (Homo sapiens, UniProt P51449)
Construct: 20 nM recombinantly expressed RORγ-LBD fused to GST
Sequence (P51449 269-508 limits assumed): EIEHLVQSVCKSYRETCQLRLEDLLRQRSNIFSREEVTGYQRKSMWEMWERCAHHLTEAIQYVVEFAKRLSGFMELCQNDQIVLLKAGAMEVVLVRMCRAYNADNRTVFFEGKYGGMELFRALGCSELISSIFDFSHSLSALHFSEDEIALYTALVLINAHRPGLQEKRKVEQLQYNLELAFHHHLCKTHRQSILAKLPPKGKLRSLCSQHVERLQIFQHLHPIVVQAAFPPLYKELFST
Test: Time-resolved FRET (TR-FRET) RORγt coactivator assay
Conditions: GST-RORγ-LBD, biotinylated RIP140 peptide, coactivator displacement
pIC50: −log10 of the molar value.
Reported pIC50 values are given for each entry in this list.

molecule="CCNc1cc(C)ccc1C(NC(=O)Cc1ccc2[nH]cc(CCC(=O)O)c2c1)c1ccccc1 (stereo not drawn) [compound 120]" measuredon="RORγt ligand-binding domain (RORγt-LBD) (Homo sapiens, UniProt P51449)" valuereported="> 6.00"

Query :: Consider the molecule shown here: CCOC(=O)CCc1n[nH]c2ccc(CC(=O)NC(c3ccccc3)c3ccccc3N3CCCCC3)cc12 (stereo not drawn) [Cpd. 236] What is its recorded pIC50?
Result :: > 6.00

Query :: What about this molecule? Cc1ccc(C(CC(C)C)NC(=O)Cc2ccc3[nH]cc(CCC(=O)OC(C)(C)C)c3c2)c(OC(C)C)c1 (stereo not drawn) [Cpd. 248]
Result :: 5.00 to 6.00

Query :: What about this molecule? COC(=O)Cc1c[nH]c2ccc(CC(=O)NC(c3ccccc3)c3ccc(C)cc3Br)cc12 (stereo not drawn) [Cpd. 220]
Result :: > 6.00

Query :: What about this molecule? CC(C)(C)OC(=O)CCc1c[nH]c2ccc(CC(=O)NC(c3ccccc3)c3ccc(F)cc3N3CCCC3)cc12 (stereo not drawn) [Cpd. 92]
Result :: 5.00 to 6.00
